Biological target: Factor X, P00742
Sequence (P00742 whole entry, looked up): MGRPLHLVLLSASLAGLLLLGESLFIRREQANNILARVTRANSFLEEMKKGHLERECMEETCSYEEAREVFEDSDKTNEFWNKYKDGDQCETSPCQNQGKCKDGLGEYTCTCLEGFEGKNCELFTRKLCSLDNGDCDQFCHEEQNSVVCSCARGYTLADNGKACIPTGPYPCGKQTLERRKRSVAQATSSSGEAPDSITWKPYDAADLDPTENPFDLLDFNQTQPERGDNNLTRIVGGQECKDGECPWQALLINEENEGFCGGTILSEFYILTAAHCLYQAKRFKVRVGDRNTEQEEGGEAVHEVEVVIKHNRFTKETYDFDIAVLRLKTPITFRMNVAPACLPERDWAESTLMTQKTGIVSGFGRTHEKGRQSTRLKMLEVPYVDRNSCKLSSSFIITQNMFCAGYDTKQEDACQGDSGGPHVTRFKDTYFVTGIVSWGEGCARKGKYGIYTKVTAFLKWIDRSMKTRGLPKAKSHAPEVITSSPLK
Label true for high-side % of WT kcat/KM (at or above 300%) and false for low-side % of WT kcat/KM (below it).

[ask] API: above_or_equal(metric=% of WT kcat/KM, cutoff=300%) for item FIXa-D203N/F205T/R318Y/E410N (mature FIX numbering) (protein) chain 1: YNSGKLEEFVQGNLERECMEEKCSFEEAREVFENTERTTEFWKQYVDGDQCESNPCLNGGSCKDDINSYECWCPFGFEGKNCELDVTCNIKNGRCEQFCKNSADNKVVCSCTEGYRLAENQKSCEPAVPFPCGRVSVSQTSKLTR chain 2: VVGGEDAKPGQFPWQVVLNGKVNATCGGSIVNEKWIVTAAHCVETGVKITVVAGEHNIEETEHTEQKRNVIRIIPHHNYNAAINKYNHDIALLELDEPLVLNSYVTPICIADKEYTNIFLKFGSGYVSGWGRVFHKGYSALVLQYLRVPLVDRATCLRSTKFTIYNNMFCAGFHEGGRDSCQGDSGGPHVTEVEGTSFLTGIISWGEECAMKGKYGIYTKVSRYVNWIKNKTKLT
[reply] false

[ask] API: above_or_equal(metric=% of WT kcat/KM, cutoff=300%) for item FIXa R318Y/R338E/N346Y/R403E/E410N (protein) chain 1: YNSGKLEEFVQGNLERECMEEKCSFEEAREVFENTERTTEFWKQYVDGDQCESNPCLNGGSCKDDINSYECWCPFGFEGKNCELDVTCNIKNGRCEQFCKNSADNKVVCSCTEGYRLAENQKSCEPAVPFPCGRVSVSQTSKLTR chain 2: VVGGEDAKPGQFPWQVVLNGKVDAFCGGSIVNEKWIVTAAHCVETGVKITVVAGEHNIEETEHTEQKRNVIRIIPHHNYNAAINKYNHDIALLELDEPLVLNSYVTPICIADKEYTNIFLKFGSGYVSGWGRVFHKGYSALVLQYLRVPLVDRATCLESTKFTIYYNMFCAGFHEGGRDSCQGDSGGPHVTEVEGTSFLTGIISWGEECAMKGKYGIYTKVSEYVNWIKNKTKLT
[reply] false

[ask] API: above_or_equal(metric=% of WT kcat/KM, cutoff=300%) for item FIXa-N260S/R318Y/R338E/T343R/R403E/E410N (protein) chain 1: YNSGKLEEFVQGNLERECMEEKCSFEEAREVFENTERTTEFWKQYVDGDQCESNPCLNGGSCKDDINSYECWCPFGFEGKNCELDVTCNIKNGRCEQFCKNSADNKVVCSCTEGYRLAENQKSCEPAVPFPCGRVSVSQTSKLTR chain 2: VVGGEDAKPGQFPWQVVLNGKVDAFCGGSIVNEKWIVTAAHCVETGVKITVVAGEHNIEETEHTEQKRNVIRIIPHHNYSAAINKYNHDIALLELDEPLVLNSYVTPICIADKEYTNIFLKFGSGYVSGWGRVFHKGYSALVLQYLRVPLVDRATCLESTKFRIYNNMFCAGFHEGGRDSCQGDSGGPHVTEVEGTSFLTGIISWGEECAMKGKYGIYTKVSEYVNWIKNKTKLT
[reply] true

[ask] API: above_or_equal(metric=% of WT kcat/KM, cutoff=300%) for item FIXa-Y155F/R338E/T343R/R403E (protein) chain 1: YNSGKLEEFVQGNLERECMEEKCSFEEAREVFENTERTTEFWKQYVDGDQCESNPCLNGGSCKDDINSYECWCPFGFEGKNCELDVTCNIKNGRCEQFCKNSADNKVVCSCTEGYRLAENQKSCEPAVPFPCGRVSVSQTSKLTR chain 2: VVGGEDAKPGQFPWQVVLNGKVDAFCGGSIVNEKWIVTAAHCVETGVKITVVAGEHNIEETEHTEQKRNVIRIIPHHNYNAAINKYNHDIALLELDEPLVLNSYVTPICIADKEYTNIFLKFGSGYVSGWGRVFHKGRSALVLQYLRVPLVDRATCLESTKFRIYNNMFCAGFHEGGRDSCQGDSGGPHVTEVEGTSFLTGIISWGEECAMKGKYGIYTKVSEYVNWIKEKTKLT
[reply] true

[ask] API: above_or_equal(metric=% of WT kcat/KM, cutoff=300%) for item FIXa-D104N/K106S/Y155F/K228N/K247N/N249S (protein) chain 1: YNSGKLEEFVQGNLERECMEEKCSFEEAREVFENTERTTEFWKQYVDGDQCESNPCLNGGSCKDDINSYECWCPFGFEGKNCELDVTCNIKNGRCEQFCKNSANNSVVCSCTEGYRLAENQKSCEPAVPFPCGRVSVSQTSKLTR chain 2: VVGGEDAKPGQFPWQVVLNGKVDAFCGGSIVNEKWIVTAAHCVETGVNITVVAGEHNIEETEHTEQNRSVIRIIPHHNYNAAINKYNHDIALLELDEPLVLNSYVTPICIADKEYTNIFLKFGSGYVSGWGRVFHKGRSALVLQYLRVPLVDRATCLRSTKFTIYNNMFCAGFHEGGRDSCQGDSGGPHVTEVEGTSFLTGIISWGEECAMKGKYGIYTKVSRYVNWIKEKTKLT
[reply] false

[ask] API: above_or_equal(metric=% of WT kcat/KM, cutoff=300%) for item FIXa-K247N/N249S/R318Y/R338E/T343R/R403E/E410N (protein) chain 1: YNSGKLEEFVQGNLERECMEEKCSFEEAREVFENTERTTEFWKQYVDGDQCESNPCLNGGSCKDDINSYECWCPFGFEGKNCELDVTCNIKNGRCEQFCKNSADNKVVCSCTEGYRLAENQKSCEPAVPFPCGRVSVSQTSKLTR chain 2: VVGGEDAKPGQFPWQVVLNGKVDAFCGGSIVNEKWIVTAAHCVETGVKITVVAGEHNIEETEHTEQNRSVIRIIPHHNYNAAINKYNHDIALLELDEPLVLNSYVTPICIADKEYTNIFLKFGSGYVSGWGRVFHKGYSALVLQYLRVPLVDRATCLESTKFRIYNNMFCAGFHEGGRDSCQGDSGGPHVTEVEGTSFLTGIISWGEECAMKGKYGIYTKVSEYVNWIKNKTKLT
[reply] true

[ask] API: above_or_equal(metric=% of WT kcat/KM, cutoff=300%) for item FIXa D104N/K106S/K228N/K247N/N249S/R318Y/R338E/R403E/E410N (protein) chain 1: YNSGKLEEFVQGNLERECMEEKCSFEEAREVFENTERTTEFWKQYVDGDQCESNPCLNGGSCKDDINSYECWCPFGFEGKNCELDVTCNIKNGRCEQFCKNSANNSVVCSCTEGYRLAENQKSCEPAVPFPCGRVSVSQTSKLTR chain 2: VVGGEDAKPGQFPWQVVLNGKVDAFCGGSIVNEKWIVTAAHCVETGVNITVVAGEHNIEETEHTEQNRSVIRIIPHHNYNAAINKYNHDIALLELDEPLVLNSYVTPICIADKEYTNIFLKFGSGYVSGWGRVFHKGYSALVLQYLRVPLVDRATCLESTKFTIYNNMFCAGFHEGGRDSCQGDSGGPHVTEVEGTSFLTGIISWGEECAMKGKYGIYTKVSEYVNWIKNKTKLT
[reply] false
